- Test system: ATP;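 further: ATP exposure 15 min at 22 °C before imaging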
- experiment-description: switch fluorescence ratio, 500 uM ATP over buffer (Cy3 cluster intensity, sum of 5 cycles each) (fold (ratio)); higher = stronger signal-on switching upon ATP binding; sequences stand for … in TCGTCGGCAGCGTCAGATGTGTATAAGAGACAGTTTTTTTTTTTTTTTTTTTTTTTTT…TC
- condition-label: aptamer strand: ATP DNA aptamer (quencher-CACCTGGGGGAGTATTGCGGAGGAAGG + anchor), 100 nM annealed; ATP concentration: 500 uM
quantity-kind: switch fluorescence ratio
Give bare numbers.

Okay, here is my list. What is switch fluorescence ratio for each of these?
1. GCAGTTGTTC
2. GGGGACTGAT
3. CTGATTTTAT

Solution:
[0.981, 0.995, 0.986]

Okay, here is my list. What is switch fluorescence ratio for each of these?
1. GTTAAAGATA
2. GAGGAAGGGA
3. GGGTTGTTGT
4. TTGGTTAGTT
5. GGGTAGTCAG

Solution:
0.992
1.01
0.982
0.981
0.995
